- targetDesc: Solute carrier family 2, facilitated glucose transporter member 1 (Homo sapiens) (UniProt P11166)
- Sequence (P11166 whole entry): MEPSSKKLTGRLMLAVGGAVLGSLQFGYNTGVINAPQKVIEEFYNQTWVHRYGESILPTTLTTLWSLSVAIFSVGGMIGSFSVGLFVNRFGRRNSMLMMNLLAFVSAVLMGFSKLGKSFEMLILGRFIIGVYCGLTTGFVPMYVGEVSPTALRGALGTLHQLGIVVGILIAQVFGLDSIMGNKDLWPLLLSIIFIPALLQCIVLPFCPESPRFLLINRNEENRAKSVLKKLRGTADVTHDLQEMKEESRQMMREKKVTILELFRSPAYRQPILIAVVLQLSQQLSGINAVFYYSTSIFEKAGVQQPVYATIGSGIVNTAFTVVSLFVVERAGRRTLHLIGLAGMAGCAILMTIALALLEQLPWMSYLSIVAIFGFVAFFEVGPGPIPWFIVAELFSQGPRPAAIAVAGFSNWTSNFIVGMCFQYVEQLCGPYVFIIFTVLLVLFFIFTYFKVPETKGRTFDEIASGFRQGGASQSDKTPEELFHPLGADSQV
- test: ST_JUDE_LEISH: Cytotoxicity at 2uM final concentration against transgenic Leishmania Mexicana promastigotes LmGLUT1 that are glucose transport deficient and complemented with the human glucose transporter GLUT1. Activity is measured by DNA content using SYBR green in vitro
- Format: functional
Label met when inhibition >= 3%; otherwise not met.

State whether the measured inhibition reaches 3%, counting equality as reaching it, for "COc1ccc(CNC(=O)c2cnc3cc(-c4c(C)noc4C)ccc3c2Nc2ccccc2C(C)(C)C)cc1"
met

Another molecule: "CN1CCN(c2ccc(Nc3c4ccccc4nc4ccccc34)cc2)CC1"
met

Another molecule: "COc1ccc2c(=NN=Cc3ccccc3Cl)cc(C)[nH]c2c1"
not met

Another molecule: "C[C@H](Cc1ccc(OCCCCCOc2ccc(C[C@@H](C)NC[C@H](O)c3cccc(Cl)c3)cc2)cc1)NC[C@H](O)c1cccc(Cl)c1"
met

Another molecule: "CCc1ccccc1N1CCN(CCCC(=O)c2ccc(NC(=O)c3cc(Cl)cc(Cl)c3)cc2)CC1"
met

Another molecule: "Cc1nc(N)nc(N)c1OCCCOc1ccccc1Br"
met

Another molecule: O=C(NCc1cccc2ccccc12)C1CCCN(C(=O)c2ccc(O)c(-c3ccc(Cl)c(Cl)c3)c2)C1 (centres undefined)
not met

Another molecule: "COc1ccc(NC(=O)/C=C/c2cc(Br)ccc2F)cc1OCCN(C(C)C)C(C)C"
not met

---

- targetDesc: Glucose transporter (Leishmania mexicana) (UniProt O61059)
- test: ST_JUDE_LEISH: Cytotoxicity at 2uM final concentration against transgenic Leishmania Mexicana promastigotes LmGT2 that are glucose transport deficient and complemented with the L. Mexicana glucose transporter 2. Activity is measured by DNA content using SYBR green in vitro
- Type: functional
measuredAttribute: inhibition (%)
Only the number, expressed in %, is required.

Which inhibition reading was recorded for the molecule "O=C(OCc1ccccn1)c1nc2ccccc2[nH]1" ?
0.92

Another molecule: "Cc1ccc2c(=NN=CC=Cc3ccccc3)cc(C)[nH]c2c1"
2.88

Another molecule: COc1ccc2nccc(NCC3(O)CCC(NCc4ccc5c(n4)NC(=O)CS5)CC3)c2n1 (stereo unspecified)
4.28

Another molecule: "Cn1cc(C(=O)Nc2cccc(-c3cccc(-c4nc5cc(F)ccc5[nH]4)c3)c2)n(C)c1=O"
5.83

Another molecule: "c1ccc(-n2cncn2)cc1"
4.67

Another molecule: "CCCCCCN1CCCN(Cc2ccc(C(=O)Nc3ccc(F)c(F)c3)cc2)CC1"
12.9

---

- targetDesc: Solute carrier family 2, facilitated glucose transporter member 1 (Homo sapiens) (UniProt P11166)
- test: ST_JUDE_LEISH: Cytotoxicity at 2uM final concentration against transgenic Leishmania Mexicana promastigotes LmGLUT1 that are glucose transport deficient and complemented with the human glucose transporter GLUT1. Activity is measured by DNA content using SYBR green in vitro
- Type: functional
Give inhibition for every item shown.
Only the number, expressed in %, is required.

Which inhibition reading was recorded for the molecule "Cc1ccc(C2CCN(CCCCNC(=O)c3ccc(-c4ccc(C#N)cc4)cc3)CC2)c(O)c1" ?
7.24

Another molecule: "COc1cc2nc(N3CCC(CNC(=O)c4cccc5cccnc45)CC3)nc(N)c2cc1OC"
5.61

Another molecule: "CC1(C)N=C(N)N=C(N)N1O"
-0.13

Another molecule: "CNc1nc(N/N=C/c2cc([N+](=O)[O-])c(Cl)cc2Cl)nc(Nc2cccc(C(F)(F)F)c2)n1"
4.8

Another molecule: "CCn1ccc2c(N3CCCS3(=O)=O)cc(C(=O)N[C@@H](Cc3ccccc3)[C@H](O)CNC(C)(C)CCCC(C)C)cc21"
7.39

Another molecule: "CCc1cn2c3c(cc(C(=O)N[C@@H](Cc4ccccc4)[C@H](O)CNCC(C)C)cc13)N(C)S(=O)(=O)CC2"
3.97

Another molecule: "CCOCc1cnc(C)nc1CNC(=O)c1c(C)[nH]c2ccc(C)cc12"
0.96

Another molecule: "COc1ccc(-c2cncc3ccc(C(=O)NCCCn4ccnc4)nc23)cc1"
7.45

Another molecule: "COc1ccccc1N1CCN(c2cccc3c2nc(-c2cncc(C#N)c2)n3CCNCc2ccccc2)CC1"
9.96

---

- targetDesc: Solute carrier family 2, facilitated glucose transporter member 1 (Homo sapiens)
- test: ST_JUDE_LEISH: Cytotoxicity at 2uM final concentration against transgenic Leishmania Mexicana promastigotes LmGLUT1 that are glucose transport deficient and complemented with the human glucose transporter GLUT1. Activity is measured by DNA content using SYBR green in vitro
- Type: functional
Give inhibition for every item shown.
Only the number, expressed in %, is required.

Observed inhibition on Solute carrier family 2, facilitated glucose transporter member 1 (Homo sapiens) for "CC(C)NCc1ccc(-c2ccc(-c3nc4cc(F)ccc4[nH]3)cc2)cc1" , please.
7.9

Another compound: COc1ccc(Br)cc1/C=C/C(=O)Nc1cccc(C2CCCN(C)C2)c1 (stereo unspecified)
6.13

Another compound: "N#Cc1ccc2[nH]c(-c3ccccc3)nc2c1"
7.3

Another compound: "Cc1cc(Nc2ccncc2)n2nc(C)c(-c3ccccc3Cl)c2n1"
2.97

Another compound: CCN1CCN(C(=O)NC(C(=O)N(C)Cc2ccc(-c3ccc(C(F)(F)F)cc3)cc2)c2cccs2)C(=O)C1=O (stereo unspecified)
1.34

Another compound: "CSc1nc2nc(C)c(Cc3cccc(F)c3)c(C)n2n1"
-1.07

---

- targetDesc: Hexose transporter 1 (Plasmodium falciparum) (UniProt O97467)
- test: ST_JUDE_LEISH: Cytotoxicity at 2uM final concentration against transgenic Leishmania Mexicana promastigotes LmPfHT that are glucose transport deficient and complemented with the Plasmodium falciparum hexose transporter. Activity is measured by DNA content using SYBR green in vitro
- Format: functional
Label condition met when inhibition >= 2%; otherwise condition not met.

State whether the measured inhibition reaches 2%, counting equality as reaching it, for "O=C(Nc1cccc(-c2ccc(CN3CCCC3)cc2)c1)c1cccc(F)c1"
condition not met

Another compound: "CCCCn1c(-c2ccco2)nc2c(c(=O)c3ccccc3n2C)c1=O"
condition met

Another compound: "Cc1nc(C)c(-c2ccc(Oc3ccc(OC(F)(F)F)cc3)cc2)c(O)c1I"
condition not met

Another compound: "CC1(C)N=C(N)N=C(Nc2ccc(F)c(F)c2)N1"
condition not met

Another compound: "CN1CCN(CCCN(Cc2cccc(-c3ccc(CNC4CCCC4)cc3)c2)C(=O)/C=C/c2ccccc2)CC1"
condition met

Another compound: "Cc1cccc(CN2CCCN(Cc3ccc(C(=O)Nc4ccc(C(C)(C)C)cc4)cc3)CC2)c1"
condition not met

Another compound: O=c1ccc2ccc(F)c3c2n1CC3CN1CCC(NCc2cccc(-c3ccccc3F)c2)CC1 (stereo not given)
condition met

Another compound: "CC(C)Cc1c(O)nc(SCCN2CCOCC2)[nH]c1=O"
condition not met

Another compound: Cc1cc(NC2CCN(CC3CCCCC3)C2)nc(Nc2ccc(Br)cc2)n1 (stereo not given)
condition met

Another compound: "O=C(NCCc1ccccc1)[C@H](Cc1ccccc1)Nc1ccnc(NCC2CCCCC2)n1"
condition met

Another compound: COc1cccc(NC(=O)c2ccc(NCCCN3CC(C)CC(C)C3)c([N+](=O)[O-])c2)c1 (stereo not given)
condition met

Another compound: "CC(=O)Nc1ccc(CN2CCC(NC(=O)c3ccc(-c4cccc(F)c4)s3)CC2)cc1"
condition not met

Another compound: "CS(=O)(=O)Cc1ccc(Nc2nccc(-c3c(-c4cccc(NC(=O)c5c(F)cccc5F)c4)nn4ncccc34)n2)cc1"
condition met

Another compound: OC1CCCN(Cc2ccc(-c3ccc(-c4nc5cc(F)ccc5[nH]4)s3)cc2)C1 (stereo not given)
condition met

Another compound: "COc1ccc2nccc(N(C)CC3(O)CCN(CCc4ccc5c(c4)NC(=O)CS5)CC3)c2n1"
condition met

Another compound: "O=C(Nc1ccccc1)Nc1ccc(-n2ccc(C(F)(F)F)n2)cc1"
condition met

Another compound: N#Cc1ccc(-c2ccc(OCC(O)CN3CCCN(Cc4cccc(O)c4Cl)CC3)cc2)cc1 (stereo not given)
condition not met

Another compound: COC1CCC(C(=O)Nc2ccc(-c3cccc(-c4nc5cccc(C)c5[nH]4)c3)cc2)CC1 (stereo not given)
condition met

Another compound: "N#Cc1ccc(-c2ccc(C(=O)Nc3ccc4c(c3)CCN(C3CCC3)CC4)nc2)cn1"
condition met

Another compound: "Cc1noc(-c2ccc(O)cc2O)c1-c1ccc2c(c1)OCCCO2"
condition not met

---

Give inhibition for every item shown.
- targetDesc: Glucose transporter (Leishmania mexicana) (UniProt O61059)
- test: ST_JUDE_LEISH: Cytotoxicity at 2uM final concentration against transgenic Leishmania Mexicana promastigotes LmGT2 that are glucose transport deficient and complemented with the L. Mexicana glucose transporter 2. Activity is measured by DNA content using SYBR green in vitro
- Type: functional
Only the number, expressed in %, is required.

Which inhibition reading was recorded for the molecule "O=C(Nc1ccccc1)N(Cc1ccccc1-c1cccc(CNCCc2ccccc2)c1)C1CCN(Cc2ccccc2)CC1" ?
-0.84

Another molecule: "Cc1cnccc1/C=C/c1cccc(OCCN2CCc3ccc(S(C)(=O)=O)cc3CC2)c1"
1.68

Another molecule: "COc1cc(NC(=O)/C=C/c2cccc3cc[nH]c23)ccc1OCCN(C(C)C)C(C)C"
-2.66

Another molecule: "Cn1cncc1CNCc1ccc(-c2cccc(-c3nc4ccccc4[nH]3)c2)cc1"
-4.84

Another molecule: "C[C@H](Cc1ccc(Oc2ccc(C[C@@H](C)NC[C@H](O)c3cccc(Cl)c3)cc2)cc1)NC[C@H](O)c1cccc(Cl)c1"
102

Another molecule: "CCCOc1ccc(C(=O)Nc2nonc2-c2ccc(OC)c(OC)c2)cc1"
5.89

Another molecule: "CCNc1cc(C(=O)N[C@@H](Cc2ccccc2)[C@H](O)CNC2(C)CCCCC2)cc(N2CCCCS2(=O)=O)c1"
-0.26

Another molecule: "CC(C)NCc1ccc(-c2cccc(NC(=O)c3cccc(Cl)c3)c2)cc1"
10.7

Another molecule: "Cc1nc(C)c(-c2ccc(Oc3ccc(OC(F)(F)F)cc3)cc2)c(O)c1I"
-1.65

Another molecule: "Cc1onc(-c2ccccc2)c1-c1nc(NCc2ccccc2Cl)no1"
1.32

Another molecule: CC(C)CCNC(=O)C1Cc2c([nH]c3cc(Br)ccc23)C2(CCN(Cc3ccccc3)CC2)N1 (stereo not drawn)
14.8

Another molecule: "CCOc1ccc(NC(C)=O)c(O)c1"
3.62

Another molecule: "CCCNCc1ccc(-c2ccc(CN(Cc3ccc4c(c3)OCO4)C(=O)Cc3cccnc3)cc2)nc1"
10.2

Another molecule: "CN(Cc1cccc(C#N)c1)C1CCN(c2cc(NC(=O)c3cccc(F)c3)ccn2)CC1"
4.33

Another molecule: "O=C(Nc1cccc(-c2cccc(-c3nc4cc(C(F)(F)F)ccc4[nH]3)c2)c1)c1cccnc1"
-1.51

Another molecule: "CCCCCCCCCn1c(NCc2cc(Cl)ccc2O)nc2ccccc21"
0.42

Another molecule: "O=C(Nc1ccc(Cn2nc(Cl)c(N3CCCNCC3)cc2=O)cc1)Nc1ccc(-c2ccccc2)cc1"
16.6

Another molecule: "CC(C)C[C@H]1C(=O)N[C@H](C2Cc3ccccc3C2)C(=O)N1[C@@H](C(=O)Nc1ccccc1OCc1ccccc1)c1ccc(F)cc1F"
-0.16

Another molecule: "COc1ccc(Cc2c(N)nc3nc(N)nc(N)c3c2C)cc1"
3.1

Another molecule: COc1ccc(Br)cc1C1Nc2ccc3ccccc3c2C2=C1C(=O)CC(c1ccccc1)C2 (stereo not drawn)
3.67

Another molecule: "CC(C)CC(=O)N1CCNC[C@@H]1C(=O)NC1CC1"
-0.37

Another molecule: "COc1ccc(CNCc2ccc(-c3cccc(-c4nc5cc(C(F)(F)F)ccc5[nH]4)c3)cc2)cc1"
-2.33

Another molecule: CC(=O)C1=NN(c2ccc(C)cc2)C(c2cccs2)N1c1ccccc1 (stereo not drawn)
2.11

Another molecule: "Cc1ccc(C(=O)Nc2cc(S(=O)(=O)N3CCCC3)ccc2OCC(F)(F)F)cc1"
4.69

Another molecule: "CN1CCCN(Cc2ccc(-c3ccc(NC(=O)c4cccc(C#N)c4)cc3)cc2)CC1"
0.78

Another molecule: "COc1cc2ccccc2c(CON2C(=N)N=C(N)NC2(C)C)c1OC"
1.62

Another molecule: "O=C(NCCCCN1CCC(c2ccc3c(c2OCc2ccccn2)CCCC3)CC1)c1ccc(NC(=O)c2ccc(Cl)cc2)cc1"
2.55

Another molecule: CCCC(C(CC1CCC(C)CC1)C(=O)NC(CCCNc1ncccn1)C(=O)Nc1nccs1)N(O)C=O (stereo not drawn)
5.63

Another molecule: "Nc1c2c(nc3ccccc13)C(=Cc1ccc(O)cc1)CCC2"
2.9

Another molecule: "C=C(C)COc1ccc(-c2n[nH]c(C(F)(F)F)c2-c2ccccc2OC)c(O)c1"
6.48

Another molecule: "COc1ccc2[nH]c(-c3ccccc3)cc(=NN=Cc3ccncc3)c2c1"
5.54

Another molecule: "Cc1ccc(NC(=O)c2ccc(CN3CCCN(Cc4cccc(O)c4)CC3)cc2)cc1F"
6.83

Another molecule: "c1ccc(CN2CCC(NCc3ccccc3-c3cccc(CNCc4ccc5c(c4)OCO5)c3)CC2)cc1"
0.7

Another molecule: "Nc1ccncc1C(=O)NCCCCN1CCN(c2nsc3ccccc23)CC1"
-1.16

Another molecule: "COc1ccc(Cn2c(Nc3cccc(C(F)(F)F)c3)nc3ccc(C(=O)NCCN4CCCC4)cc32)cc1Cl"
14.2

Another molecule: CCC(=O)N(c1ccccc1)C1CCN(CCCC(NC(=O)c2cc(C(F)(F)F)cc(C(F)(F)F)c2)c2ccc(Cl)c(Cl)c2)CC1 (stereo not drawn)
6.09

Another molecule: "COc1ccc(CN2CCC(NCc3cccc([N+](=O)[O-])c3)CC2)cc1"
6.36

Another molecule: "O=C(Nc1cccc(CN2CCCN(Cc3ccc(F)cc3)CC2)c1)c1ccc(Cl)c(Cl)c1"
0.56
